# PROTOCOL NOTES: ovarian cancer cell viability with rucaparib, profiling panel, oncology-focused library, rucaparib conditional (AID 1508598)
# PROTOCOL CONDITIONS: patient-derived ovarian cancer cells, CellTiter-Glo viability, 144 h; at 0.313 µM; OCI-C5x cells; without rucaparib; stronger effect = lower value
Below: a set of entries, each annotated with reported viability.
Numbers only here, please. The scale is %.

Request: Specify measured viability for O=C1CCC(N2C(=O)c3ccccc3C2=O)C(=O)N1 (centres undefined) .
Result: 109

Request: Answer with the recorded viability for the compound listed here: `CCN(CC)C(=S)SSC(=S)N(CC)CC`
Result: 136

Request: Return reported viability. Input compound: `NC(=O)c1ccc(-c2nc(-c3ccc4c(c3)OCO4)c(-c3ccccn3)[nH]2)cc1`
Result: 146

* * *

Quick reference for viability decrease (inhibition) among some compounds
# PROTOCOL NOTES: decreased DLD-1 cellular survival, CellTiter-Glo luminescent readout, NPC compound collection, primary HTS (AID 1117346)
# PROTOCOL CONDITIONS: DLD-1 viability, CellTiter-Glo luminescence; at 20 µM (top of the series)
Give the value in % but do not write % after it.

Record excerpt, results attached:
Request: Identify the reported viability decrease (inhibition) for the following entry. `O=S(=O)(O)c1ccc(O)cc1`
Result: -5.95

Request: Give viability decrease (inhibition) for `O=C(O)c1c(O)c(-c2ccccc2)nc2ccccc12`
Result: 39

Request: Output viability decrease (inhibition) of `Cc1cccc(C)c1NC(=O)CN1CCCC1`
Result: 2.4

Request: Return viability decrease (inhibition) for the following compound: `Oc1cccc(O)c1O`
Result: 17.2

Request: Fill in viability decrease (inhibition) for record `NC[C@H]1O[C@H](O[C@@H]2[C@@H](O)[C@@H](O[C@H]3O[C@H](CO)[C@@H](O)[C@H](N)[C@@H]3O)[C@H](N)C[C@@H]2N)[C@H](O)[C@@H](O)[C@H]1O`
Result: -23.8

Request: Entry `Cc1ncc(C[n+]2csc(CCOP(=O)(O)O)c2C)c(N)n1` needs its viability decrease (inhibition) filled in; supply it.
Result: 17.1

Request: Tell me its viability decrease (inhibition) given CCCOc1ccc2c(c1)CC[C@@H]1[C@@H]2CC[C@]2(C)C(OC)CC[C@@H]12 (stereo not given in full) as the entry.
Result: 40.8

Request: Tell me viability decrease (inhibition) reported for `CCCC(=O)O[C@]1(C(=O)CC)CC[C@H]2[C@@H]3CCC4=CC(=O)CC[C@]4(C)[C@H]3[C@@H](O)C[C@@]21C`
Result: 25.5

Next:
Request: # return recorded viability decrease (inhibition) for entry `Cc1ccc(C(=O)C(=O)O)cc1C`
Result: -5

Request: Give me measured viability decrease (inhibition), please, for this compound: O=C1CCC(N2C(=O)c3ccccc3C2=O)C(=O)N1 (stereo not given)
Result: 53.7

* * *

# PROTOCOL NOTES: survival rescue of mitochondrial mutant cells in low glucose, primary screen, MELAS cybrids, Rieske KO mouse fibroblasts, CellTiter-Glo (AID 1508586);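 further: z relative to plate mean and SD of compound and empty wells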
# PROTOCOL CONDITIONS: MELAS cybrid survival, CellTiter-Glo 48 h, stronger effect = higher value
The entries below come with measured z-score values attached.
// print number alone

Request: // fetch z-score given entry `CC(=O)Nc1nnc(S(N)(=O)=O)s1`
Result: -0.627

Request: Determine its reported z-score: `COc1cc2ncn(-c3cc(OCc4ccccc4C(F)(F)F)c(C(=O)N(C)C)s3)c2cc1OC`
Result: 0.0168

Request: Check the records and state z-score for `CCn1c(-c2nonc2N)nc2c(C#CC(C)(C)O)nc(O[C@@H](CN)c3ccccc3)cc21`
Result: 1.1

Request: For the compound `COc1ccccc1C1=C(Nc2ccccc2)C(=O)NC1=O` , give its reported z-score.
Result: -1.08

Request: Please give measured z-score of the following entry: `Nc1nccc(C#Cc2cncnc2Nc2ccc(OCc3cccc(F)c3)c(Cl)c2)n1`
Result: -0.936

Continue with the compound presented below.
Request: For the compound `O=C1NC(=O)C(c2cccc(Cl)c2)=C1Nc1ccc(O)c(Cl)c1` , give its measured z-score value.
Result: -1.05
